- system name: Factor Xa (Homo sapiens, UniProt P00742)
- Construct: Factor Xa; 0.2 μM in 50% glycerol (9.2 μg/mL)
- Sequence (P00742 235-488 limits assumed): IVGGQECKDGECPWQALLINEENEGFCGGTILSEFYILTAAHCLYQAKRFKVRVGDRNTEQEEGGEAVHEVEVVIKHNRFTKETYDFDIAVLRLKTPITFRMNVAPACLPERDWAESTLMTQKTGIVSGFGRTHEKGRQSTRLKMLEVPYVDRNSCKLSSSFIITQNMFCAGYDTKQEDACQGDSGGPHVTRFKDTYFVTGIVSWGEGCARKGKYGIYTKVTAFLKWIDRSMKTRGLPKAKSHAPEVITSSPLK
- Sequence (P00742 41-179 partner limits assumed): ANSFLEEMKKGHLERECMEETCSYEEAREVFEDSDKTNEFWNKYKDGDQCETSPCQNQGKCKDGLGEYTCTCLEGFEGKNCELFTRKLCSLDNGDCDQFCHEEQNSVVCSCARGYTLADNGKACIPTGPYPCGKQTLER
- assay summary: Dose response assay for protease inhibitors: Factor Xa (FXIa fold selectivity)
- Format: biochemical
- condition notes: fold selectivity for FXIa over Factor Xa

# compound, FXIa Fold Selectivity FXa
data = [
    ("O=C(O)[C@@H]1[C@@H](Cc2ccncc2)C(=O)N1C(=O)N[C@@H](C1CCCCC1)C(F)(F)F [Example 135]", "G (“G” indicates 1-500)"),
    ("C[C@@H](NC(=O)N1C(=O)[C@H](Cc2ccnc(N)c2)[C@H]1C(=O)O)C1CCCCC1 [Example 38]", "I (“I” indicates >1000)"),
    ("CCOC(=O)[C@@H]1[C@@H](Cc2ccnc(NC)c2)C(=O)N1C(=O)N[C@H](C)c1ccc2c(c1)OC(F)(F)O2 [Example 99]", "I (“I” indicates >1000)"),
    ("O=C(O)[C@@H]1[C@@H](Cc2ccncc2)C(=O)N1C(=O)NC(c1ccccc1)c1ccccc1 [Example 123]", "G (“G” indicates 1-500)"),
    ("CCC[C@@H](NC(=O)N1C(=O)[C@H](Cc2ccnc(N)c2)[C@H]1C(=O)O)c1ccc2c(c1)OC(F)(F)O2 [Example 89]", "G (“G” indicates 1-500)"),
    ("CNc1cc(C[C@H]2C(=O)N(C(=O)N[C@H](C)c3ccc4c(c3)OC(F)(F)O4)[C@@H]2C(=O)O)ccn1 [Example 98]", "G (“G” indicates 1-500)"),
    ("Nc1cc(C[C@H]2C(=O)N(C(=O)N[C@@H](c3ccccc3)C(F)(F)F)[C@@H]2C(=O)O)ccn1 [Example 44]", "I (“I” indicates >1000)"),
    ("CC(C)C(=O)OCOC(=O)Nc1cc(C[C@H]2C(=O)N(C(=O)N[C@H](C)c3ccc4c(c3)OC(F)(F)O4)[C@@H]2C(=O)O)ccn1 [Example 100]", "G (“G” indicates 1-500)"),
]

* * *

- assay summary: in vitro
- condition notes: both, human, plasma, pH 7.4
- Procedure: The following procedure was used to determine the plasma protein binding of a test compound in pooled plasma from human (mixed gender) via equilibrium dialysis in a 96-well plate format. […] The supernatants are analyzed by HPLC-MS/MS. The amount measured in the plasma compartment includes both free and bound drug, while that on the buffer side represents free drug only; the differences are used to calculate the percentage plasma protein bound.
Each item that follows carries a reported fraction unbound at 4 h, 10 µM.

# molecule, fraction unbound at 4 h, 10 µM
measured = [
    ("C[C@@H](NC(=O)N1C(=O)[C@H](Cc2ccncc2)[C@H]1C(=O)O)c1ccc2c(c1)OC(F)(F)O2", "0.02 to 0.1"),
    ("O=C(O)[C@@H]1[C@@H](CCc2cccc(Cl)c2)C(=O)N1C(=O)N[C@@H](C1CCCCC1)C(F)(F)F", "< 0.02"),
    ("Nc1cc(C[C@H]2C(=O)N(C(=O)N[C@@H](C3CCCCC3)C(F)(F)F)[C@@H]2C(=O)O)ccn1", "> 0.1"),
    ("CCOC(=O)[C@@H]1C(CCc2cccc(Cl)c2)C(=O)N1C(=O)N[C@@H](C1CCCCC1)C(F)(F)F (some centres unmarked)", "> 0.1"),
    ("CC(C)C(=O)OCOC(=O)Nc1cc(C[C@H]2C(=O)N(C(=O)N[C@H](C)c3ccc4c(c3)OC(F)(F)O4)[C@@H]2C(=O)O)ccn1", "< 0.02"),
    ("C[C@@H](NC(=O)N1C(=O)[C@H](Cc2ccnc(N)c2)[C@H]1C(=O)O)c1ccc2c(c1)OC(F)(F)O2", "0.02 to 0.1"),
    ("C[C@@H](NC(=O)N1C(=O)C(Cc2ccnc(Cl)c2)[C@H]1C(=O)O)c1ccc2c(c1)OC(F)(F)O2 (some centres unmarked)", "< 0.02"),
    ("C[C@@H](NC(=O)N1C(=O)[C@H](Cc2ccnc(N)c2)[C@H]1C(=O)O)C1CCCCC1", "> 0.1"),
]

* * *

- system name: Thrombin (Homo sapiens)
- Construct: Thrombin; 0.2 μM in 50% glycerol (7.34 μg/mL)
- assay summary: Dose response assay for protease inhibitors: thrombin (FXIa fold selectivity)
- Format: biochemical
- condition notes: fold selectivity for FXIa over thrombin
attribute measured: FXIa Fold Selectivity Thrombin

# molecule, system name, measured
data = [
    ("C[C@H](NC(=O)N1C(=O)[C@H](Cc2ccnc(N)c2)[C@H]1C(=O)O)c1ccc2c(c1)OC(F)(F)O2", "Thrombin (Homo sapiens)", "G (“G” indicates 1-500)"),
    ("Nc1cc(C[C@H]2C(=O)N(C(=O)NCc3ccccc3)[C@@H]2C(=O)O)ccn1", "Thrombin (Homo sapiens)", "G (“G” indicates 1-500)"),
    ("CNC(=O)N1C(=O)[C@H](Cc2ccnc(N)c2)[C@H]1C(=O)O", "Thrombin (Homo sapiens)", "G (“G” indicates 1-500)"),
]

* * *

Notes on IC50 obtained with human Factor XIa (Homo sapiens, UniProt P03951).
Sequence (P03951 388-625 limits assumed): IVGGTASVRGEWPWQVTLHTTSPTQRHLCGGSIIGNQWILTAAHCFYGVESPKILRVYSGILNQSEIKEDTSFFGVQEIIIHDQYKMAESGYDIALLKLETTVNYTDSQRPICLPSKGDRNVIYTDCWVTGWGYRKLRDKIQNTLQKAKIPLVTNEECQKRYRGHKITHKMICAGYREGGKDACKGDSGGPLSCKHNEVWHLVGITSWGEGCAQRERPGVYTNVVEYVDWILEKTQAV
Sequence (P03951 19-387 partner limits assumed): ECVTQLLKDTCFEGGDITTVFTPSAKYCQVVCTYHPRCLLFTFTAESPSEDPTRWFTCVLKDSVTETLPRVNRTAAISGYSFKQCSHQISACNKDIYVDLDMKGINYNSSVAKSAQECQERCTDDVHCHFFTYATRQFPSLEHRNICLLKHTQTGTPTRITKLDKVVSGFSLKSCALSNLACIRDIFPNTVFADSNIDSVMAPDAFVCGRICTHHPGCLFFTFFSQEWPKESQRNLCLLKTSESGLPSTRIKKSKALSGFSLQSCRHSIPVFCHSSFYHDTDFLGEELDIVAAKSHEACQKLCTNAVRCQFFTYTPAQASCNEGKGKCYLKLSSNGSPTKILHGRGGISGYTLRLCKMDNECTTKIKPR
attribute measured: IC50

# compound, measured
records = [
    ("O=C(O)[C@@H]1[C@@H](Cc2ccncc2)C(=O)N1C(=O)NC(c1ccccc1)c1ccccc1", "100 to 1000 nM"),
    ("Nc1cc(C[C@H]2C(=O)N(C(=O)NCc3cccc4ccccc34)[C@@H]2C(=O)O)ccn1", "10 to 100 nM"),
    ("CCOC(=O)[C@@H]1[C@@H](Cc2ccnc(NC(=O)OCOC(=O)C(C)C)c2)C(=O)N1C(=O)N[C@H](C)c1ccc2c(c1)OC(F)(F)O2", "10 to 100 nM"),
    ("CCOC(=O)[C@@H]1C(CCc2cccc(Cl)c2)C(=O)N1C(=O)N[C@@H](C1CCCCC1)C(F)(F)F (stereo partly shown)", "100 to 1000 nM"),
    ("C[C@@H](NC(=O)N1C(=O)[C@H](Cc2ccnc(N)c2)[C@H]1S(C)(=O)=O)c1ccccc1", "100 to 1000 nM"),
    ("CC(C)C(=O)OCOC(=O)Nc1cc(C[C@H]2C(=O)N(C(=O)N[C@H](C)c3ccc4c(c3)OC(F)(F)O4)[C@@H]2C(=O)O)ccn1", "100 to 1000 nM"),
    ("CCO[C@@H]1[C@@H](Cc2ccnc(N)c2)C(=O)N1C(=O)NC(c1ccccc1)c1ccccc1", "> 1000 nM"),
]

* * *

- System: Trypsin
- assay summary: Dose response assay for protease inhibitors: trypsin (FXIa fold selectivity)
- Assay type: biochemical
- condition notes: fold selectivity for FXIa over trypsin
- Source text: […]

# molecule, FXIa Fold Selectivity Trypsin
data = [
    ("C[C@@H](NC(=O)N1C(=O)[C@H](Cc2ccnc(N)c2)[C@H]1S(C)(=O)=O)c1ccccc1", "G (“G” indicates 1-500)"),
    ("CCOC(=O)[C@@H]1[C@@H](Cc2ccnc(N)c2)C(=O)N1C(=O)N[C@@H](C)c1ccc2c(c1)OC(F)(F)O2", "G (“G” indicates 1-500)"),
]

* * *

pIC50: −log10 of the molar value.
Entries with reported pIC50 on human Factor XIa (Homo sapiens, UniProt P03951)

# compound, pIC50
records = [
    ("CCOC(=O)[C@@H]1[C@@H](Cc2ccncc2)C(=O)N1C(=O)N[C@H](C)c1ccc2c(c1)OC(F)(F)O2 [Example 170]", "7.00 to 8.00"),
    ("O=C(O)[C@@H]1[C@@H](Cc2ccncc2)C(=O)N1C(=O)N[C@@H](C1CCCCC1)C(F)(F)F [Example 135]", "6.00 to 7.00"),
    ("CCOC(=O)[C@@H]1[C@@H](Cc2ccnc(N)c2)C(=O)N1C(=O)N[C@@H](C)c1ccc2c(c1)OC(F)(F)O2 [Example 166]", "> 8.00"),
    ("CNC(=O)N1C(=O)[C@H](Cc2ccnc(N)c2)[C@H]1C(=O)O [Example 55]", "< 6.00"),
    ("O=C(O)[C@@H]1[C@@H](CCc2cccc(Cl)c2)C(=O)N1C(=O)N[C@@H](C1CCCCC1)C(F)(F)F [Example 134]", "6.00 to 7.00"),
    ("C[C@@H](NC(=O)N1C(=O)[C@H](Cc2ccnc(N)c2)[C@H]1C(=O)O)c1cccnc1 [Example 40]", "7.00 to 8.00"),
    ("CNc1cc(C[C@H]2C(=O)N(C(=O)N[C@H](C)c3ccc4c(c3)OC(F)(F)O4)[C@@H]2C(=O)O)ccn1 [Example 98]", "> 8.00"),
]

* * *

- system name: Factor Xa (Homo sapiens)
- Construct: Factor Xa; 0.2 μM in 50% glycerol (9.2 μg/mL)
- assay summary: Dose response assay for protease inhibitors: Factor Xa (FXIa fold selectivity)
- Format: biochemical
- condition notes: fold selectivity for FXIa over Factor Xa

# molecule, FXIa Fold Selectivity FXa
measured = [
    ("C[C@@H](NC(=O)N1C(=O)[C@H](Cc2ccnc(N)c2)[C@H]1C(=O)O)c1cccnc1", "I (“I” indicates >1000)"),
    ("C[C@@H](NC(=O)N1C(=O)[C@H](Cc2ccnc(N)c2)[C@H]1C#N)c1ccccc1", "I (“I” indicates >1000)"),
    ("CNC(=O)N1C(=O)[C@H](Cc2ccnc(N)c2)[C@H]1C(=O)O", "G (“G” indicates 1-500)"),
    ("Nc1cc(C[C@H]2C(=O)N(C(=O)NCc3ccccc3)[C@@H]2C(=O)O)ccn1", "G (“G” indicates 1-500)"),
    ("C[C@@H](NC(=O)N1C(=O)[C@H](Cc2ccnc(N)c2)[C@H]1C(=O)O)c1ccc2c(c1)OC(F)(F)O2", "I (“I” indicates >1000)"),
    ("C[C@@H](NC(=O)N1C(=O)[C@H](Cc2ccnc(N)c2)[C@H]1C(=O)O)C1CCCCCCC1", "I (“I” indicates >1000)"),
    ("CC(NC(=O)N1C(=O)[C@H](Cc2ccnc(N)c2)[C@H]1C(=O)O)c1ccc(OC(F)(F)F)cc1 (stereo partly drawn)", "I (“I” indicates >1000)"),
]
